Tested on: HCT-15 colon
Assay: NCI tumour cell line growth inhibition, 48 h
quantity: TGI

{"columns": ["compound", "measured result"],
 "data": [
  ["COc1cc2c(cc1OCCCCn1c(-c3cccs3)nc3ccccc31)N=C[C@@H]1CCCN1C2=O", "10.5 µM"],
  ["N#CCC1C2CC3C(C2=O)C13 (stereo unspecified)", "> 100 µM"],
  ["Cn1nc(-c2ccccc2)c2c(-c3ccccc3)c3cc(Cl)ccc3nc21", "> 22.9 µM"],
  ["COc1cc2c(cc1O)Cc1c-2[n+](C)cc2cc(OC)c(OC)cc12", "> 100 µM"],
  ["CCCCCCCC(CC(=O)NC(CO)C(=O)NC(CO)CC(C)C)OC(=O)CC(CCCCCCC)OC(=O)CC(CCCCCCC)OC1OC(C)C(O)C(OC2OC(C)C(O)C(O)C2O)C1O (stereo unspecified)", "34.6 µM"]
]}

Please fill in: TGI reported for `C/C(=N\O)c1cccc(Nc2cc(-c3ccccc3)nc3c(O)cccc23)c1` = 20.9 µM

Please fill in: TGI reported for `C/C(=N/NC(=S)N1CC2CCC(CC2)C1)c1cnccn1` = 16 µM

Please fill in: TGI reported for `O=[N+]([O-])c1ccc(/C(Cl)=C/c2ccc(/C=C(\Cl)c3ccc([N+](=O)[O-])cc3[N+](=O)[O-])cc2)c([N+](=O)[O-])c1` = > 100 µM

Please fill in: TGI reported for CN(C)CCN(C)C(=O)C1CCCN1C(=O)OCc1ccccc1 (stereo unspecified) = > 100 µM

Please fill in: TGI reported for `O=C(NCCc1ccccc1)c1cc(/C=C/c2cc(O)ccc2O)ccc1O` = 7.42 µM

Please fill in: TGI reported for `O=C(O)c1cccc(OCCOc2cccc(C(=O)O)c2[N+](=O)[O-])c1[N+](=O)[O-]` = > 100 µM

Please fill in: TGI reported for `O=C(CCN1CCC(CCO)CC1)Nc1ccc2c(c1)C(=O)c1ccc(NC(=O)CCN3CCC(CCO)CC3)cc1C2=O` = > 100 µM

Please fill in: TGI reported for `CCN(CC)C(=S)N/N=C/c1cc(OC)ccc1O` = > 100 µM

Please fill in: TGI reported for `Cc1cc(C)c(NC(=O)/C=C/c2ccccc2)c(C)c1` = > 100 µM

Please fill in: TGI reported for `O=C(Oc1c(Br)cc(Br)cc1C(=O)Oc1ccccc1)C(=O)Oc1c(Br)cc(Br)cc1C(=O)Oc1ccccc1` = 75.3 µM

Please fill in: TGI reported for `O=C1NC(=O)C(c2ccccc2)=C1Nc1ccccc1` = > 25 µM

Please fill in: TGI reported for CCCCCCCCCCCCCCCC(=O)Nc1ccn(C2CCC(COP(=O)(O)OCC3OC(n4cc(F)c(=O)[nH]c4=O)CC3OC(C)=O)O2)c(=O)n1 (stereo unspecified) = > 100 µM

Please fill in: TGI reported for `OCCCc1cnco1` = > 100 µM

Please fill in: TGI reported for `N#Cc1c2ccccc2c2nnc3ccccc3n12` = > 100 µM
